tested on: CEM (human lymphoblastoid) cells; assay: Cellular toxicity assay in CEM cells; assay type: cell-based; details: read-out: Cytotoxicity, CC50
Readout kind: CC50

I have this molecule here, O=c1ccn(C2OC(CO)C(O)C2(Cl)Cl)c(=O)[nH]1 (stereo not shown) , and I need its recorded CC50.
> 100 µM

###

system: human PBM cells; assay: Cellular toxicity assay in human PBM cells; assay type: cell-based; settings: Human PBM cells; read-out: Cytotoxicity, CC50
Readout kind: CC50

I have this molecule here, O=c1ccn(C2OC(CO)C(O)C2(Cl)Cl)c(=O)[nH]1 (stereo not shown) , and I need its recorded CC50.
> 100 µM

###

assay: Cellular toxicity assay in CEM cells; type: cell-based, human; conditions: human, read-out: Cytotoxicity, CC50
Readout kind: CC50

I have this compound here, CC(C)OC(=O)[C@H](C)NP(=O)(OC[C@H]1O[C@@H](n2ccc(=O)[nH]c2=O)C(Cl)(Cl)[C@@H]1O)Oc1ccccc1 (stereo partly shown) [Compound 18] , and I need its recorded CC50.
> 100 µM

###

tested on: HCV GT 1b replicon (Huh-7 cells); experiment: HCV replicon assay; assay type: cell-based; conditions: Hepatitis C virus, GT1B, Huh-7
Readout kind: EC50

I have this molecule here, CC(C)OC(=O)[C@H](C)NP(=O)(OC[C@H]1O[C@@H](n2ccc(N)nc2=O)C(Cl)(Cl)[C@@H]1O)Oc1ccccc1 (stereo partly shown) , and I need its recorded EC50.
0.1 to 1 µM
